Test: Plasma and urine PK of verinurad in the presence of febuxostat
Format: in vivo, human
Details: human, plasma, oral, Tmax, verinurad 2.5 mg + febuxostat 40 mg; median (range)

molecule: CC(C)(Sc1ccncc1-c1ccc(C#N)c2ccccc12)C(=O)O [verinurad]
output-unit: h
Tmax: 3.5

---

Assay: Plasma and urine PK of verinurad in the presence of febuxostat
Type: in vivo, human
Conditions: human, plasma, oral, Tmax, verinurad 10 mg + febuxostat 40 mg; median (range)

compound-structure-string: CC(C)(Sc1ccncc1-c1ccc(C#N)c2ccccc12)C(=O)O
Tmax, h: 3

---

Assay: Plasma and urine PK of verinurad in the presence of febuxostat
Format: in vivo, human
Details: human, plasma, oral, Tmax, verinurad 15 mg + febuxostat 40 mg; median (range)
assay-readout: Tmax

compound-structure-string: CC(C)(Sc1ccncc1-c1ccc(C#N)c2ccccc12)C(=O)O
reported-value: 3 h
